The values you see were collected from patent US6602900B2.

- target: TP receptor (Rattus norvegicus)
- Construct: rings of the isolated rat thoracic aorta; from tissue; host or cells: isolated rat thoracic aorta rings
- Sequence (P34978 whole entry): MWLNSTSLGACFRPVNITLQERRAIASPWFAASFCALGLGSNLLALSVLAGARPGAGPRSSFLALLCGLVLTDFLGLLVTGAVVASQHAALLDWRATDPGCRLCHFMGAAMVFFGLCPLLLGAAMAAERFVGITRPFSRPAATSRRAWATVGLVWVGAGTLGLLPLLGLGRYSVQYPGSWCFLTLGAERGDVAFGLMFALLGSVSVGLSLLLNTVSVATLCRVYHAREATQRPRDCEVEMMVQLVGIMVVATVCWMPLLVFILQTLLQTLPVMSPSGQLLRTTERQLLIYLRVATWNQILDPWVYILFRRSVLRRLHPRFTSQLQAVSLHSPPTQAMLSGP
- procedureSummary: TP-vasoconstrictor activity: contraction of rings of the isolated rat thoracic aorta
- Assay type: cell-based
- conditionDescription: isolated rat thoracic aorta contraction; read-out: EC50 (nM) TP
- Method: Activity at different prostanoid receptors was measured in vitro in isolated smooth muscle preparations. FP-activity was measured as contraction of the isolated feline iris sphincter. EP1-activity was measured as contraction of the longitudinal smooth muscle of the isolated guinea pig ileum. […] Activity was also measured as relaxation of smooth muscle of isolated rabbit jugular vein a preparation which appears to contain a unique PGF2α-sensitive receptor provisionally termed FPVASC. […]
Could you please report measured EC50 for the items listed next?
One number for each entry, in nM.

O=C(O)CCC/C=C\C[C@@H]1[C@@H](/C=C/[C@@H](O)CCc2ccc(Br)s2)[C@H](O)C[C@@H]1O ... 5080
O=C(O)CCC/C=C\C[C@@H]1[C@@H](/C=C/[C@@H](O)CCc2ccoc2)[C@H](O)C[C@@H]1O ... 5400
O=C(O)CCC/C=C\C[C@@H]1[C@@H](/C=C/[C@@H](O)CCc2cccs2)[C@H](O)C[C@@H]1O ... 4010
O=C(O)CCC/C=C\C[C@@H]1[C@@H](/C=C/[C@@H](O)CCc2ccsc2Cl)[C@H](O)C[C@@H]1O ... 2450
O=C(O)CCC/C=C\C[C@@H]1[C@@H](/C=C/[C@@H](O)CCc2sccc2Cl)[C@H](O)C[C@@H]1O ... 3530
O=C(O)CCC/C=C\C[C@@H]1[C@@H](/C=C/[C@@H](O)CCc2cc(Cl)sc2Cl)[C@H](O)C[C@@H]1O [drawing 28] ... 2300
O=C(O)CCC/C=C\C[C@@H]1[C@@H](/C=C/[C@@H](O)CCc2cc(Br)cs2)[C@H](O)C[C@@H]1O ... 371
O=C(O)CCC/C=C\C[C@@H]1[C@@H](/C=C/[C@@H](O)CCc2ccsc2)[C@H](O)C[C@@H]1O [drawing 12] ... 2460

Respectfully, I request EC50 for each entry included below.
1. O=C(O)CCC/C=C\C[C@@H]1[C@@H](CC[C@@H](O)CCc2ccsc2)[C@H](O)C[C@@H]1O
2. Cc1sccc1CC[C@H](O)/C=C/[C@@H]1[C@@H](C/C=C\CCCC(=O)O)[C@@H](O)C[C@H]1O

4740
3980
